Listed here: items and their measured MIC.
# Test system: Escherichia coli
# Test Name: Antibacterial activity against extended-spectrum beta-lactamase producing Escherichia coli 14-2 after 18 to 24 hrs by two-fold serial dilution method
# Type: functional

Worked set:
CO/N=C1/CN(c2c(F)cc3c(=O)c(C(=O)O)cn4c3c2OC[C@@H]4C)CC1(C)CNC1CC1 (stereo partly drawn) :: > 128 µg/mL
CCO/N=C1/CN(c2nc3c(cc2F)c(=O)c(C(=O)O)cn3-c2nc(N)c(F)cc2F)CC1(C)CNC1CC1 (stereo not drawn) :: > 128 µg/mL
C[C@H]1COc2c(N3CCN(C)CC3)c(F)cc3c(=O)c(C(=O)O)cn1c23.C[C@H]1COc2c(N3CCN(C)CC3)c(F)cc3c(=O)c(C(=O)O)cn1c23.O [LEVOFLOXACIN] :: 8 µg/mL

response.value for CCO/N=C1/CN(c2nc3c(cc2F)c(=O)c(C(=O)O)cn3-c2nc(N)c(F)cc2F)CC1CNC1CC1 (stereo not drawn) (field: MIC) = > 128 µg/mL

The molecule listed as CCO/N=C1/CN(c2nc3c(cc2F)c(=O)c(C(=O)O)cn3C2CC2)CC1(C)CNC1CC1 (stereo not drawn) shows MIC equal to > 128 µg/mL

get_value(item= CCO/N=C1/CN(c2nc3c(cc2F)c(=O)c(C(=O)O)cn3[C@@H]2C[C@@H]2F)CC1CNC1CC1 (stereo partly drawn) , readout=MIC) returns 128 µg/mL

The value of MIC measured for the molecule CO/N=C1/CN(c2nc3c(cc2F)c(=O)c(C(=O)O)cn3-c2nc(N)c(F)cc2F)CC1CNC1CC1 (stereo not drawn) turned out to be > 128 µg/mL

Form field MIC, entry CO/N=C1/CN(c2c(F)cc3c(=O)c(C(=O)O)cn(C4CC4)c3c2OC)CC1CNC1CC1 (stereo not drawn) : > 128 µg/mL

* * *

Each record here notes measured MIC.
# Tested on: Klebsiella pneumoniae
# Test Name: Antibacterial activity against Klebsiella pneumoniae 14-4 after 18 to 24 hrs by two-fold serial dilution method
# Assay type: functional

See these solved cases before continuing.
CC1(CNC2CC2)CN(c2nc3c(cc2F)c(=O)c(C(=O)O)cn3C2CC2)C/C1=N/OCc1ccccc1 (stereo not drawn) :: > 128 µg/mL
CCO/N=C1/CN(c2c(F)cc3c(=O)c(C(=O)O)cn4c3c2OC[C@@H]4C)CC1(C)CNC1CC1 (stereo partly drawn) :: > 128 µg/mL
CCO/N=C1/CN(c2c(F)cc3c(=O)c(C(=O)O)cn([C@@H]4C[C@@H]4F)c3c2OC)CC1CNC1CC1 (stereo partly drawn) :: > 32 µg/mL
CCO/N=C1/CN(c2nc3c(cc2F)c(=O)c(C(=O)O)cn3[C@@H]2C[C@@H]2F)CC1(C)CNC1CC1 (stereo partly drawn) :: > 128 µg/mL
O=C(O)c1cn(C2CC2)c2nc(N3C/C(=N/OCc4ccccc4)C(CNC4CC4)C3)c(F)cc2c1=O (stereo not drawn) :: > 128 µg/mL
Nc1nc(-n2cc(C(=O)O)c(=O)c3cc(F)c(N4C/C(=N/OCc5ccccc5)C(CNC5CC5)C4)nc32)c(F)cc1F (stereo not drawn) :: > 128 µg/mL
CC1(CNC2CC2)CN(c2nc3c(cc2F)c(=O)c(C(=O)O)cn3-c2nc(N)c(F)cc2F)C/C1=N/OCc1ccccc1 (stereo not drawn) :: > 128 µg/mL
O=C(O)c1cn2c3c(c(N4C/C(=N/OCc5ccccc5)C(CNC5CC5)C4)c(F)cc3c1=O)OC[C@@H]2CF (stereo partly drawn) :: > 64 µg/mL
CO/N=C1/CN(c2nc3c(cc2F)c(=O)c(C(=O)O)cn3-c2nc(N)c(F)cc2F)CC1CNC1CC1 (stereo not drawn) :: > 128 µg/mL
CO/N=C1/CN(c2c(F)cc3c(=O)c(C(=O)O)cn4c3c2OC[C@@H]4C)CC1CNC1CC1 (stereo partly drawn) :: > 64 µg/mL

Tested on Klebsiella pneumoniae, the item CCO/N=C1/CN(c2nc3c(cc2F)c(=O)c(C(=O)O)cn3[C@@H]2C[C@@H]2F)CC1CNC1CC1 (stereo partly drawn) showed MIC equal to 128 µg/mL

Tested system Klebsiella pneumoniae; MIC recorded for C[C@H]1COc2c(N3CCN(C)CC3)c(F)cc3c(=O)c(C(=O)O)cn1c23.C[C@H]1COc2c(N3CCN(C)CC3)c(F)cc3c(=O)c(C(=O)O)cn1c23.O [LEVOFLOXACIN] was 16 µg/mL

Response field MIC (Klebsiella pneumoniae) for item O=C(O)c1cn(C2CC2)c2cc(N3CCNCC3)c(F)cc2c1=O [CIPROFLOXACIN] : 32 µg/mL

Sample CCO/N=C1/CN(c2nc3c(cc2F)c(=O)c(C(=O)O)cn3C2CC2)CC1CNC1CC1 (stereo not drawn) , system: Klebsiella pneumoniae. Its MIC is 128 µg/mL

The recorded MIC with Klebsiella pneumoniae for CCO/N=C1/CN(c2nc3c(cc2F)c(=O)c(C(=O)O)cn3C2CC2)CC1(C)CNC1CC1 (stereo not drawn) was > 128 µg/mL

* * *

# Tested on: Klebsiella pneumoniae
# Test Name: Antibacterial activity against Klebsiella pneumoniae 14-3 after 18 to 24 hrs by two-fold serial dilution method
# Assay type: functional
Reported MIC values for the following compounds.

Look over these answered cases.
Nc1nc(-n2cc(C(=O)O)c(=O)c3cc(F)c(N4C/C(=N/OCc5ccccc5)C(CNC5CC5)C4)nc32)c(F)cc1F (centres undefined) :: > 128 mg/L
O=C(O)c1cn([C@@H]2C[C@@H]2F)c2nc(N3C/C(=N/OCc4ccccc4)C(CNC4CC4)C3)c(F)cc2c1=O (some centres undefined) :: 128 mg/L
CC1(CNC2CC2)CN(c2nc3c(cc2F)c(=O)c(C(=O)O)cn3C2CC2)C/C1=N/OCc1ccccc1 (centres undefined) :: > 128 mg/L

Now, please, on to the next compound.
Record CO/N=C1/CN(c2c(F)cc3c(=O)c(C(=O)O)cn(C4CC4)c3c2OC)CC1CNC1CC1 (centres undefined) . Reported MIC: > 128 mg/L

* * *

Listed here are compounds together with their documented MIC.
# Tested on: Escherichia coli
# Test Name: Antibacterial activity against Escherichia coli ATCC 25922 after 18 to 24 hrs by two-fold serial dilution method
# Type: functional
Expressed in µg/mL, but write only the number.

Solved cases below.
CO/N=C1/CN(c2c(F)cc3c(=O)c(C(=O)O)cn4c3c2OC[C@@H]4C)CC1CNC1CC1 (some centres undefined) :: 0.5
CC1(CNC2CC2)CN(c2nc3c(cc2F)c(=O)c(C(=O)O)cn3[C@@H]2C[C@@H]2F)C/C1=N/OCc1ccccc1 (some centres undefined) :: 4
CO/N=C1/CN(c2nc3c(cc2F)c(=O)c(C(=O)O)cn3C2CC2)CC1(C)CNC1CC1 (centres undefined) :: 0.5
CO/N=C1/CN(c2nc3c(cc2F)c(=O)c(C(=O)O)cn3C2CC2)CC1CNC1CC1 (centres undefined) :: 0.5
CO/N=C1/CN(c2nc3c(cc2F)c(=O)c(C(=O)O)cn3[C@@H]2C[C@@H]2F)CC1CNC1CC1 (some centres undefined) :: 4
CCO/N=C1/CN(c2nc3c(cc2F)c(=O)c(C(=O)O)cn3C2CC2)CC1(C)CNC1CC1 (centres undefined) :: 1
Nc1nc(-n2cc(C(=O)O)c(=O)c3cc(F)c(N4C/C(=N/OCc5ccccc5)C(CNC5CC5)C4)nc32)c(F)cc1F (centres undefined) :: 8
C[C@H]1COc2c(N3C/C(=N/OCc4ccccc4)C(CNC4CC4)C3)c(F)cc3c(=O)c(C(=O)O)cn1c23 (some centres undefined) :: 1

# MIC (compound: CCO/N=C1/CN(c2nc3c(cc2F)c(=O)c(C(=O)O)cn3C2CC2)CC1CNC1CC1 (centres undefined) ) is 2

Reported MIC of CC1(CNC2CC2)CN(c2nc3c(cc2F)c(=O)c(C(=O)O)cn3C2CC2)C/C1=N/OCc1ccccc1 (centres undefined) : 1

MIC reported for this compound CO/N=C1/CN(c2nc3c(cc2F)c(=O)c(C(=O)O)cn3[C@@H]2C[C@@H]2F)CC1(C)CNC1CC1 (some centres undefined) : 1

get_value(item= CO/N=C1/CN(c2c(F)cc3c(=O)c(C(=O)O)cn(C4CC4)c3c2OC)CC1CNC1CC1 (centres undefined) , readout=MIC) returns 32

Documented MIC of O=C(O)c1cn(C2CC2)c2nc(N3C/C(=N/OCc4ccccc4)C(CNC4CC4)C3)c(F)cc2c1=O (centres undefined) : 4

Memo: CCO/N=C1/CN(c2c(F)cc3c(=O)c(C(=O)O)cn([C@@H]4C[C@@H]4F)c3c2OC)CC1CNC1CC1 (some centres undefined) , reported MIC: 2

Form field MIC, entry CO/N=C1/CN(c2c(F)cc3c(=O)c(C(=O)O)cn4c3c2OC[C@@H]4CF)CC1(C)CNC1CC1 (some centres undefined) : 2

Short answer for CO/N=C1/CN(c2nc3c(cc2F)c(=O)c(C(=O)O)cn3-c2nc(N)c(F)cc2F)CC1(C)CNC1CC1 (centres undefined) : MIC was 16

CCO/N=C1/CN(c2nc3c(cc2F)c(=O)c(C(=O)O)cn3[C@@H]2C[C@@H]2F)CC1CNC1CC1 (some centres undefined) has a reported MIC of 0.03

Memo: O=C(O)c1cn([C@@H]2C[C@@H]2F)c2nc(N3C/C(=N/OCc4ccccc4)C(CNC4CC4)C3)c(F)cc2c1=O (some centres undefined) , reported MIC: 0.25
